Sourced from patent US20240139211A1

# systemTested: BCRP (Homo sapiens, UniProt Q9UNQ0)
# Sequence (Q9UNQ0 whole entry): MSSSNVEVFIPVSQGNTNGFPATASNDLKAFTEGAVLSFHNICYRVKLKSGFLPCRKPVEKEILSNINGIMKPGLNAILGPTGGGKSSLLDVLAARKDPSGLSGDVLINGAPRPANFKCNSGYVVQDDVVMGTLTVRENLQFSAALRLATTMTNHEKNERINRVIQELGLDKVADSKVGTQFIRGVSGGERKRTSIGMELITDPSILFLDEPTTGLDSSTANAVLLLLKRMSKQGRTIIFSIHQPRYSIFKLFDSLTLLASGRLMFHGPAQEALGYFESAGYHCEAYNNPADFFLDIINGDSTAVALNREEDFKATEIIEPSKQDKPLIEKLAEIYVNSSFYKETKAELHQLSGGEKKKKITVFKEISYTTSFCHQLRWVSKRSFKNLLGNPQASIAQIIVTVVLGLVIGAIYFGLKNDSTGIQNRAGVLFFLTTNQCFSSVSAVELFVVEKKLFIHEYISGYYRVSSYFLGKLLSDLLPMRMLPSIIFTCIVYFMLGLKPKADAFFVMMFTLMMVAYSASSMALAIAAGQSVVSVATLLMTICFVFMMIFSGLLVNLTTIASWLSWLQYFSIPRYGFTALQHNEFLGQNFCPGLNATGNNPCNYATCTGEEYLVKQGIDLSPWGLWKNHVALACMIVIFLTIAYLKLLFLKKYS
# protocolDetails: Inhibitor of BCRP, 3H-estrone-3-sulfate efflux in Caco-2 cells
# conditionInfo: read-out: Estimated IC50, BCRP; estimated from two concentrations, Caco-2 cells
resultType: potency estimated from few doses

Request: Data request, read-out potency estimated from few doses, for C[C@H](CCC(=O)NCC(=O)O)[C@H]1CC[C@H]2[C@@H]3[C@@H](O)C[C@@H]4C[C@H](O)CC[C@]4(C)[C@H]3CC[C@]12C [Glycoursodeoxycholic acid, glycoursodeoxycholic acid]
Result: > 100 µM

----------
# systemTested: OCT2 (Homo sapiens)
# Sequence (O15244 whole entry): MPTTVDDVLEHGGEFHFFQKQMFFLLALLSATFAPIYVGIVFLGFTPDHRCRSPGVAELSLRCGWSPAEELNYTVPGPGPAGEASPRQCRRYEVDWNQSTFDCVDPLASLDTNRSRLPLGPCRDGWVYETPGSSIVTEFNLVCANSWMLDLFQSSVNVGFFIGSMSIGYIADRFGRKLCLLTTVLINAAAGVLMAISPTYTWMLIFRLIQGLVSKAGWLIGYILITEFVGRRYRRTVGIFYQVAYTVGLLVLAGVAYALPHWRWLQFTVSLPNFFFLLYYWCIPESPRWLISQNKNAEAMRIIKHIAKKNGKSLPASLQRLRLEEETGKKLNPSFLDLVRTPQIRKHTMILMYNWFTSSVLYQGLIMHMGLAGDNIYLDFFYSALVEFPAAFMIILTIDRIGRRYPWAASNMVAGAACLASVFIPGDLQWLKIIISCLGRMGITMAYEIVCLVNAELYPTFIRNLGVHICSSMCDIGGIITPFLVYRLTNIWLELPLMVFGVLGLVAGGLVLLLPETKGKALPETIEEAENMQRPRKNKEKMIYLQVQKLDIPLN
# protocolDetails: in vitro
resultType: potency estimated from few doses

Request: Item `O=C(O)Cc1ccccc1` with OCT2 (Homo sapiens) - potency estimated from few doses?
Result: < 7.5 mM
